Values were extracted from paper PMC10397247.

Target: T1, APC9182-AA
T1 chain: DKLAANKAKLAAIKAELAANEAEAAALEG
Assay: two-hybrid library CCmax;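 further: natural log of median RNA to DNA barcode read ratio; higher means stronger binding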
Details: mean of both orientations
As shown below, each of these binders has a reported interaction score value.
endpoint.name: interaction score

{"binder": "DKNAALKAKNAALKAKAAALKAKLAAIKG [APC5531-AA]", "observed.result": -1.96}
{"binder": "DKAAALKAKAAALKAEAAALEAKAAALKG [APC3323-AA]", "observed.result": -1.64}
{"binder": "DKLAANKAKLAAIKAENAALEAKLAAIKG [APC9141-AA]", "observed.result": -1.82}
{"binder": "DENAALEAKLAAIKAELAAIEAELAAIEG [APC4100-AA]", "observed.result": -1.63}
{"binder": "DEAAALEAEAAALEAKNAALKAKLAAEKG [APC2257-AA]", "observed.result": -1.86}
{"binder": "DELAAIEAEAAALEAEAAALEAEAAALEG [APC222-AA]", "observed.result": -1.69}
{"binder": "DENAALEAKAAALKAKAAALKAELAAEEG [APC4336-AA]", "observed.result": -1.89}
{"binder": "DKLAAIKAKLAAIKAKLAAIKAKNAALKG [APC1115-AA]", "observed.result": -1.98}
{"binder": "DEAAALEAKLAAEKAEAAALEAENAALEG [APC2724-AA]", "observed.result": -1.95}
{"binder": "DEAAALEAKAAALKAKLAAEKAKNAALKG [APC2375-AA]", "observed.result": -1.83}
{"binder": "DKLAAEKAKNAALKAEAAALEAENAALEG [APC7524-AA]", "observed.result": -1.85}
{"binder": "DELAAEEAELAAIEAELAANEAELAANEG [APC6088-AA]", "observed.result": -1.84}
{"binder": "DELAANEAENAALEAELAAIEAKLAAIKG [APC8401-AA]", "observed.result": -1.43}
{"binder": "DEAAALEAKLAANKAELAANEAKLAAIKG [APC2981-AA]", "observed.result": -1.76}
